Consider the following compounds; for each one, report its IC50.
- SYSTEM TESTED: Aminopeptidase N (Plasmodium falciparum FcB1/Columbia, UniProt O96935)
- Sequence (O96935 whole entry): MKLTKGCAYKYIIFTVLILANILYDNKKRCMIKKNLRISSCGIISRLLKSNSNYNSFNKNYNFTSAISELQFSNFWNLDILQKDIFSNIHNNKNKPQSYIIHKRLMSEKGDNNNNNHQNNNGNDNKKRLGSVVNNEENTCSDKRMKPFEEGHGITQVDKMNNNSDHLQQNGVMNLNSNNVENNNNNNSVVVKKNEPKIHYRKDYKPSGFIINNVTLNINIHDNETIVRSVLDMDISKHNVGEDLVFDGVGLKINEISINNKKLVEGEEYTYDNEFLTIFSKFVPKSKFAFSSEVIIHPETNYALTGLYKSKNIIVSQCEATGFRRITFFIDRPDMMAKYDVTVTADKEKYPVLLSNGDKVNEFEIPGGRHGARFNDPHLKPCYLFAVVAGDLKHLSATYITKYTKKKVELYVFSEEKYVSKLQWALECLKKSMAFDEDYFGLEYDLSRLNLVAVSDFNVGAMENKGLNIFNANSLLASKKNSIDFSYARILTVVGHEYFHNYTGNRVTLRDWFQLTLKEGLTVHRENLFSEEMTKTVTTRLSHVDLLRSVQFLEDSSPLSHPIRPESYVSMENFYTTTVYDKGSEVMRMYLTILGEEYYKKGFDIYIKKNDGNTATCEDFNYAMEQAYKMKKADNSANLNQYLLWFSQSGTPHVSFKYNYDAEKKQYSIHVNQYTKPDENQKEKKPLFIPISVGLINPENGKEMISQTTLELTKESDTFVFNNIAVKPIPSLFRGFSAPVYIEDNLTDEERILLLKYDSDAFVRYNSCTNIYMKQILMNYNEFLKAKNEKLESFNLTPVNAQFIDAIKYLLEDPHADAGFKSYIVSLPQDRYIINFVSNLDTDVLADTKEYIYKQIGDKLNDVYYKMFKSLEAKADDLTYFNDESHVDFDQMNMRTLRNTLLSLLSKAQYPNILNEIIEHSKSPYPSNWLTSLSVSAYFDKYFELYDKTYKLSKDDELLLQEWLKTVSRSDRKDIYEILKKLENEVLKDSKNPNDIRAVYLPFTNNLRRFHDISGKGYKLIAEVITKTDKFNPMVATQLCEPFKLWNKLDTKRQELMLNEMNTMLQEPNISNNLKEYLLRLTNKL
- PROTOCOL TEXT: P. falciparum M1AAP inhibitors, biochemical, fluorogenic H-Leu-NHMec substrate, 1536-well (AID 1445)
- Design: species or system Plasmodium falciparum 3D7, 3D7
Activity calls are given as the source filed them. The rule behind the calls is not given here.

COMPOUND	IC50
Clc1ccc(/C=N/Nc2nnn[nH]2)cc1	92.8 µM (active)
COc1cc(Br)c(C2C(C#N)=C(N)Oc3[nH]nc(-c4cccnc4)c32)cc1OC (centres undefined)	44.6 µM (active)
O=C(N/N=C(\CC(=O)c1cccs1)C(F)(F)F)c1ccncc1	48.8 µM (active)

What does the data say about its IC50? Entry: COc1nc(N=C(N)N)nc2c(C)cccc12
22.2 µM (active)
